The reported numbers originate from paper PMC12133303.

- target-of-assay: Avi-HsRNMT-RAM (Homo sapiens, UniProt O43148)
- Construct: Both HsRNMT full-length proteins (1-476) in complex with HsRAM (1-90) (HsRNMT-RAM and Avi-HsRNMT-RAM); hexa-His tag (TEV-cleavable) (N, cleaved yes); made in house; host or cells: Escherichia coli BL21 (DE3), co-transformed with pCDFduet-BirA
- Sequence (O43148 whole entry): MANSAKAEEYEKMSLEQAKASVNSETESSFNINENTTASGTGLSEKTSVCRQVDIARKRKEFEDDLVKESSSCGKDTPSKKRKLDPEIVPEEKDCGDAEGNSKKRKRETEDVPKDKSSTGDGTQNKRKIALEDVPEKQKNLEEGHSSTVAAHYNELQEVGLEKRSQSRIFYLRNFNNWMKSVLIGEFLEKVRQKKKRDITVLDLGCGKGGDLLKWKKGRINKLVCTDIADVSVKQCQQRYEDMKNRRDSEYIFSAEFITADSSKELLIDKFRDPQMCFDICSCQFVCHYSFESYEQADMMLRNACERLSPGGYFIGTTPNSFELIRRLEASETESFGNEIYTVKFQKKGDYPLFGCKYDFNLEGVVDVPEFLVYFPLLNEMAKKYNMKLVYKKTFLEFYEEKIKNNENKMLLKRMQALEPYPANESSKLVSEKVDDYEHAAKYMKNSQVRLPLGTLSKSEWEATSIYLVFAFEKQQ
- Sequence (Q9BTL3 1-90 partner limits assumed): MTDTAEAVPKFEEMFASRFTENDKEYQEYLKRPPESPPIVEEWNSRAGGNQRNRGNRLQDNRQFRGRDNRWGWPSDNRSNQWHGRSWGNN
- assay-comment: SPR binding to immobilised Avi-HsRNMT-RAM
- measurement-conditions: SPR, no co-ligand
measurement-kind: Rmax

compound: Nc1ncnc2c1ncn2[C@@H]1O[C@H](C[C@@H](N)CC[C@H](N)C(=O)O)[C@@H](O)[C@H]1O [Sinefungin, reference compound]
result: 14.2 RU
--
compound: Nc1ncnc2c1ncn2[C@@H]1O[C@H](CSCC[C@H](N)C(=O)O)[C@@H](O)[C@H]1O [SAH, S-adenosylhomocysteine]
result: 14.3 RU
--
compound: C[S+](CC[C@H](N)C(=O)[O-])C[C@H]1O[C@@H](n2cnc3c(N)ncnc32)[C@H](O)[C@@H]1O (stereo partly shown) [SAM, S-adenosylmethionine]
result: 14.9 RU

* * *

Let's look at some molecules and their measured pKd.
- target-of-assay: Avi-HsRNMT-RAM (Homo sapiens)
- Construct: Both HsRNMT full-length proteins (1-476) in complex with HsRAM (1-90) (HsRNMT-RAM and Avi-HsRNMT-RAM); hexa-His tag (TEV-cleavable) (N, cleaved yes); made in house; host or cells: Escherichia coli BL21 (DE3), co-transformed with pCDFduet-BirA
- assay-comment: SPR binding to immobilised Avi-HsRNMT-RAM
- measurement-conditions: SPR, inhibitor titrated in presence of SAH; read-out: KD (steady state)
- Text: To elucidate the cap-binding mode, full-length HsRNMT in complex with activating subunit RAM (Avi-HsRNMT-RAM) was investigated by surface plasmon resonance (SPR). We first measured the kinetic and equilibrium binding constants (KD) for SAM (Figure 3A), SAH (Figure 3B), and Sinefungin (Figure 3C). The kinetics of binding for these compounds appear very similar with a rapid onset of binding reaching a steady state within a few seconds. The loss of binding on washing with buffer was very similar. […]
pKd: −log10 of the molar value.

molecule: O=C(Cc1ccc(F)cc1)N1CCCC(c2n[nH]c3nc(O)ccc23)C1 (centres unmarked)
pKd: 5.64

molecule: O=C(Cc1ccsc1)N1CCCC(c2n[nH]c3ncccc23)C1 (centres unmarked)
pKd: 5.85

* * *

molecules and their reported Kd
- target-of-assay: Avi-HsRNMT-RAM (Homo sapiens, UniProt O43148)
- Construct: Both HsRNMT full-length proteins (1-476) in complex with HsRAM (1-90) (HsRNMT-RAM and Avi-HsRNMT-RAM); hexa-His tag (TEV-cleavable) (N, cleaved yes); made in house; host or cells: Escherichia coli BL21 (DE3), co-transformed with pCDFduet-BirA
- assay-comment: SPR binding to immobilised Avi-HsRNMT-RAM
- measurement-conditions: SPR, inhibitor titrated in presence of SAH; read-out: KD (kinetic)

molecule: O=C(Cc1ccc(F)cc1)N1CCCC(c2n[nH]c3nc(O)ccc23)C1 (centres unmarked) [DDD1870799]
Kd [nM]: 2500
--
molecule: O=C(Cc1ccsc1)N1CCCC(c2n[nH]c3ncccc23)C1 (centres unmarked) [DDD1060606]
Kd [nM]: 1600

* * *

Items are presented alongside their recorded Ki.
- target-of-assay: HsRNMT-RAM (Homo sapiens)
- assay-comment: Mode of inhibition experiments (RapidFire assay)
- measurement-conditions: Ki SAM, against SAM; Ki (95% CI)
measurement-kind: Ki (nM)

molecule: Nc1ncnc2c1ncn2[C@@H]1O[C@H](C[C@@H](N)CC[C@H](N)C(=O)O)[C@@H](O)[C@H]1O [Sinefungin, reference compound]
unit-text: nM
numeric-readout: 6.8
//
molecule: O=C(Cc1ccc(F)cc1)N1CCCC(c2n[nH]c3nc(O)ccc23)C1 (stereo not drawn) [DDD1870799]
unit-text: nM
numeric-readout: 3400
//
molecule: O=C(Cc1ccsc1)N1CCCC(c2n[nH]c3ncccc23)C1 (stereo not drawn) [DDD1060606]
unit-text: nM
numeric-readout: 1600

* * *

- target-of-assay: Avi-HsRNMT-RAM (Homo sapiens)
- Construct: Both HsRNMT full-length proteins (1-476) in complex with HsRAM (1-90) (HsRNMT-RAM and Avi-HsRNMT-RAM); hexa-His tag (TEV-cleavable) (N, cleaved yes); made in house; host or cells: Escherichia coli BL21 (DE3), co-transformed with pCDFduet-BirA
- assay-comment: SPR binding to immobilised Avi-HsRNMT-RAM
- measurement-conditions: SPR, no co-ligand; read-out: KD (kinetic)
pKd: −log10 of the molar value.
This section presents compounds with their documented pKd values.

compound: Nc1ncnc2c1ncn2[C@@H]1O[C@H](CSCC[C@H](N)C(=O)O)[C@@H](O)[C@H]1O
pKd: 7.72
--
compound: C[S+](CC[C@H](N)C(=O)[O-])C[C@H]1O[C@@H](n2cnc3c(N)ncnc32)[C@H](O)[C@@H]1O (stereo partly drawn)
pKd: 7.10
--
compound: Nc1ncnc2c1ncn2[C@@H]1O[C@H](C[C@@H](N)CC[C@H](N)C(=O)O)[C@@H](O)[C@H]1O [Sinefungin, reference compound]
pKd: 7.11

* * *

- target-of-assay: HsRNMT-RAM (Homo sapiens)
- assay-comment: Mode of inhibition experiments (RapidFire assay)
- measurement-conditions: Ki cap, against cap; Ki (95% CI)
pKi: −log10 of the molar value.
This section presents compounds with their documented pKi values.

compound: Nc1nc(O)c2ncn([C@@H]3O[C@H](COP(=O)(O)OP(=O)(O)NP(=O)(O)O)[C@@H](O)[C@H]3O)c2n1 [GMP-PnP, guanosine 5′-[β,γ-imido]triphosphate, reference compound]
pKi: 5.64
--
compound: O=C(Cc1ccsc1)N1CCCC(c2n[nH]c3ncccc23)C1 (stereo not shown)
pKi: 5.80
--
compound: O=C(Cc1ccc(F)cc1)N1CCCC(c2n[nH]c3nc(O)ccc23)C1 (stereo not shown)
pKi: 5.48
--
compound: Nc1ncnc2c1ncn2[C@@H]1O[C@H](C[C@@H](N)CC[C@H](N)C(=O)O)[C@@H](O)[C@H]1O [Sinefungin, reference compound]
pKi: 6.98

* * *

- target-of-assay: Avi-HsRNMT-RAM (Homo sapiens)
- Construct: Both HsRNMT full-length proteins (1-476) in complex with HsRAM (1-90) (HsRNMT-RAM and Avi-HsRNMT-RAM); hexa-His tag (TEV-cleavable) (N, cleaved yes); made in house; host or cells: Escherichia coli BL21 (DE3), co-transformed with pCDFduet-BirA
- assay-comment: SPR binding to immobilised Avi-HsRNMT-RAM
- measurement-conditions: SPR, no co-ligand, Langmuir 1:1 model
// kd lookup, one value per entry
measurement-kind: kd

compound: Nc1ncnc2c1ncn2[C@@H]1O[C@H](C[C@@H](N)CC[C@H](N)C(=O)O)[C@@H](O)[C@H]1O [Sinefungin, reference compound]
target-of-assay: Avi-HsRNMT-RAM (Homo sapiens)
result: 0.092 s⁻¹
--
compound: Nc1ncnc2c1ncn2[C@@H]1O[C@H](CSCC[C@H](N)C(=O)O)[C@@H](O)[C@H]1O
target-of-assay: Avi-HsRNMT-RAM (Homo sapiens)
result: 0.072 s⁻¹
--
compound: C[S+](CC[C@H](N)C(=O)[O-])C[C@H]1O[C@@H](n2cnc3c(N)ncnc32)[C@H](O)[C@@H]1O (stereo partly shown)
target-of-assay: Avi-HsRNMT-RAM (Homo sapiens)
result: 0.1 s⁻¹

* * *

- target-of-assay: HsRNMT-RAM (Homo sapiens, UniProt O43148)
- Sequence (O43148 whole entry): as the sequence (O43148 whole entry) above
- Sequence (Q9BTL3 1-90 partner limits assumed): as the sequence (Q9BTL3 1-90 partner limits assumed) above
- assay-comment: Mode of inhibition experiments (RapidFire assay)
- measurement-conditions: against cap
measurement-kind: mode of inhibition with cap

molecule: O=C(Cc1ccsc1)N1CCCC(c2n[nH]c3ncccc23)C1 (stereo not shown) [DDD1060606]
result: Uncompetitive
//
molecule: O=C(Cc1ccc(F)cc1)N1CCCC(c2n[nH]c3nc(O)ccc23)C1 (stereo not shown) [DDD1870799]
result: Uncompetitive
